These measurements were taken from BindingDB's records for doi:10.1021/jm801354e.

target: 5-hydroxytryptamine receptor 2C (Homo sapiens); experiment: Agonist activity at human 5HT2C receptor expressed in HEK293 cells assessed as calcium flux by FLIPR assay
pEC50: −log10 of the molar value.
Lab note: anything with pEC50 at or over 7 counts as y; the rest go in n.

COMPOUND | CAT
CNC[C@H]1C[C@@H]1c1ccccc1 (relative stereo) | n
NC[C@H]1C[C@@H]1c1ccccc1Cl (relative stereo) | y
NC[C@H]1C[C@@H]1c1ccc(F)cc1 (relative stereo) | y

Kindly review the next compound as well.
Is pEC50 for NC[C@H]1C[C@@H]1c1cccc(O)c1 (relative stereo) at or above 7?
y

---

biological target: 5-hydroxytryptamine receptor 2A (Homo sapiens, UniProt P28223); assay: Agonist activity at human 5HT2A receptor expressed in HEK293 cells assessed as calcium flux by FLIPR assay
Sequence (P28223 whole entry): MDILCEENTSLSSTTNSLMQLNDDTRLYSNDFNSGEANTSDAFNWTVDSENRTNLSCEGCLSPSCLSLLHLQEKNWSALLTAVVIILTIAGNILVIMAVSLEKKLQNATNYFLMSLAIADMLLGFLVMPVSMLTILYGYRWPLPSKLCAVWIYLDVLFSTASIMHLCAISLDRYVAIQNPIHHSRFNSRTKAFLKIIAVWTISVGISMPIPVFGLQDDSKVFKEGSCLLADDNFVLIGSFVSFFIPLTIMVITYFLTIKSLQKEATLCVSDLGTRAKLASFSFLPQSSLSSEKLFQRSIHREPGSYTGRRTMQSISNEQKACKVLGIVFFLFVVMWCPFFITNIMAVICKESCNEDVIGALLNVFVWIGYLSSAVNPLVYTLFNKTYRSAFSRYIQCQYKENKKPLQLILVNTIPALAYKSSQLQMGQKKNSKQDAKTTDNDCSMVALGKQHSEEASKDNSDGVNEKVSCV
QUANTITY MEASURED: log10(EC50) (log10 of the value in nM)
Log10 applied to EC50; unit prior to transform: nM.

For orientation, consider the following solved cases.
COMPOUND | QUANTITY MEASURED | RECORDED VALUE
NC[C@H]1C[C@@H]1c1ccc(F)c(F)c1 (relative stereo) | log10(EC50) | 2.76
NC[C@H]1C[C@@H]1c1cccc(Cl)c1Cl (relative stereo) | log10(EC50) | 2.54
COc1ccccc1[C@H]1C[C@@H]1CN (relative stereo) | log10(EC50) | 3.34
Cc1cc([C@H]2C[C@@H]2CN)ccc1F (relative stereo) | log10(EC50) | 2.37
Cc1ccc([C@H]2C[C@@H]2CN)cc1C (relative stereo) | log10(EC50) | 3.38

State its log10(EC50) on 5-hydroxytryptamine receptor 2A (Homo sapiens, UniProt P28223): Cc1ccc([C@H]2C[C@@H]2CN)cc1 (relative stereo)
3.29

Do the same for NC[C@H]1C[C@@H]1c1ccc(F)cc1 (relative stereo) please
2.71

Do the same for Cc1ccc(Cl)c([C@H]2C[C@@H]2CN)c1F please
2.52

---

Consider compounds characterized by their pKi with Sodium-dependent serotonin transporter (Homo sapiens, UniProt P31645).
Sequence (P31645 whole entry): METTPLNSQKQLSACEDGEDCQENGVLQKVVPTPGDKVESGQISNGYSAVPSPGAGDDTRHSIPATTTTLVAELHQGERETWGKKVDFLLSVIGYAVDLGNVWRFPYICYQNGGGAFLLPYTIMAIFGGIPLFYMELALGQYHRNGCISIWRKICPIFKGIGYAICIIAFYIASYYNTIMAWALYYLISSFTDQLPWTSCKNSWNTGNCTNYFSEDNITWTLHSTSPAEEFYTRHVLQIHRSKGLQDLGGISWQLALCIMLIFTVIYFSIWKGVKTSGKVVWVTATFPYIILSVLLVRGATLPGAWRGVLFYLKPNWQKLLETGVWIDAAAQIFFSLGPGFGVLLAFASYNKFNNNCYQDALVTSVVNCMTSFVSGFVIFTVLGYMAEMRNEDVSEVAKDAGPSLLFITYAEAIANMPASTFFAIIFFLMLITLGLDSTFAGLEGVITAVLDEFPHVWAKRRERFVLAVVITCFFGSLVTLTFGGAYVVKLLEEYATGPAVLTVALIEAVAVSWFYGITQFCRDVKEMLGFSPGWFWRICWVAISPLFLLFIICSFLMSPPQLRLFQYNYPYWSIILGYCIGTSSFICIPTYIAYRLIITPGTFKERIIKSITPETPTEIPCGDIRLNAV
Give only the number. pKi is defined as minus log10 of concentration in molar units.

COMPOUND | QUANTITY MEASURED | RECORDED VALUE
NC[C@H]1C[C@@H]1c1ccc(F)cc1 (relative stereo) | pKi | 5.57

Record request: pKi value, item NC[C@H]1C[C@@H]1c1ccc(F)cc1Cl (relative stereo)
5.98

---

As shown below, each of these molecules has a reported EC50 value.
Target: 5-hydroxytryptamine receptor 2C (Homo sapiens)
Sequence (P28335 whole entry): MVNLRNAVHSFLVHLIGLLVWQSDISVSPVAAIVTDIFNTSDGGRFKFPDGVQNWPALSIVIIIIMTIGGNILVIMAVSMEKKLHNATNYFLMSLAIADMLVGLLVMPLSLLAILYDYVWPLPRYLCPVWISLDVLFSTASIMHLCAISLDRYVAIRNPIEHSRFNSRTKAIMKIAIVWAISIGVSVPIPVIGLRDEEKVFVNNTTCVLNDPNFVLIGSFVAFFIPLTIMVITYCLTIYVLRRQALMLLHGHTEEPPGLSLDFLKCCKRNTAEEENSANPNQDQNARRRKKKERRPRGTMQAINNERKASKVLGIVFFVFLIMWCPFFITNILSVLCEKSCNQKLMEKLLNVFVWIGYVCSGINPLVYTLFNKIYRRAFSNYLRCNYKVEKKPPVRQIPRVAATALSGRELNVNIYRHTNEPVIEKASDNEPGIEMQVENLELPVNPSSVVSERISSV
Test: Agonist activity at human 5HT2C receptor expressed in HEK293 cells assessed as calcium flux by FLIPR assay
Just the number please, in nM, no unit attached.

MOLECULE | UOM | EC50
Cc1ccccc1[C@H]1C[C@@H]1CN (relative stereo) | nM | 23

Record request: EC50 value, item Cc1cc([C@H]2C[C@@H]2CN)ccc1F (relative stereo)
6

Do the same for NC[C@H]1C[C@@H]1c1cccc(Cl)c1Cl (relative stereo) please
11
